- subject.of.test: Aminopeptidase N (Sus scrofa) (UniProt P15145)
- Sequence (P15145 whole entry): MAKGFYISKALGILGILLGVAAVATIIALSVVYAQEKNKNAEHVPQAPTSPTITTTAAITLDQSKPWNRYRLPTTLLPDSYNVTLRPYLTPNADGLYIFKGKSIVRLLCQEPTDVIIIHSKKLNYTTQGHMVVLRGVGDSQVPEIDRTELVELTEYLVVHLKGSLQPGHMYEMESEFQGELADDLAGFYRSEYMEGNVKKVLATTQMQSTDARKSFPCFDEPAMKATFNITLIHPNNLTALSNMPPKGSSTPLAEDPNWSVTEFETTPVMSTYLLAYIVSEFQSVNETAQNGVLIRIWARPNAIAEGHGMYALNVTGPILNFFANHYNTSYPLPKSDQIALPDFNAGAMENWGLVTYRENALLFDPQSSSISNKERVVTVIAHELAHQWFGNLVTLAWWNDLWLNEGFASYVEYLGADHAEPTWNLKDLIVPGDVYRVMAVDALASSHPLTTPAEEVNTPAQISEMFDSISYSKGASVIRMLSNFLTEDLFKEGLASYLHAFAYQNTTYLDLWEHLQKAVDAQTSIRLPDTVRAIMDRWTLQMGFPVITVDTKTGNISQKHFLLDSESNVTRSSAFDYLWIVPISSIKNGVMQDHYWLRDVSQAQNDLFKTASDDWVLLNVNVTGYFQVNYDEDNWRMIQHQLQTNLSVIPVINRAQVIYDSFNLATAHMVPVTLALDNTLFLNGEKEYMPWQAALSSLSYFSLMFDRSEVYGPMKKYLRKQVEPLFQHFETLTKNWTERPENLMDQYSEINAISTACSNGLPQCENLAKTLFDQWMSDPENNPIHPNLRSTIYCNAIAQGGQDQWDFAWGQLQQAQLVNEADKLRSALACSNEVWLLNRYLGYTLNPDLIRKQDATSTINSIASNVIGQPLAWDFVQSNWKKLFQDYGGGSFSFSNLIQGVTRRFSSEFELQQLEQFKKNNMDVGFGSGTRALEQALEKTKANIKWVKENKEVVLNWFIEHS
- test.description: Inhibition of pig kidney microsomal APN at 10 uM
quantity: inhibition (%)

compound: NC(C(=O)NO)C(=O)N1CCC2(CC1)C(=O)NCN2c1ccccc1 (centres undefined)
quantity: inhibition
reading.unit: %
reading: 43
//
compound: CN(CCCNC(=O)C(Cc1ccccc1)C(=O)NO)c1ccccc1 (centres undefined)
quantity: inhibition
reading.unit: %
reading: 46
//
compound: O=C(CC(=O)NCCC(c1ccccc1)c1ccccc1)NO
quantity: inhibition
reading.unit: %
reading: 87
//
compound: O=C(NO)C(Cc1ccccc1)C(=O)NC1CCN(Cc2ccccc2)CC1 (centres undefined)
quantity: inhibition
reading.unit: %
reading: 21
//
compound: O=C(NO)C(Cc1ccccc1)C(=O)NCc1ccc(F)cc1 (centres undefined)
quantity: inhibition
reading.unit: %
reading: 72
//
compound: CC(C)CC(C(=O)NO)C(=O)N1CCN(C(c2ccccc2)c2ccccc2)CC1 (centres undefined)
quantity: inhibition
reading.unit: %
reading: 19
//
compound: O=C(CC(=O)NCCc1ccccn1)NO
quantity: inhibition
reading.unit: %
reading: 16
//
compound: CC(C)CC(C(=O)NO)C(=O)NCCCCc1ccccc1 (centres undefined)
quantity: inhibition
reading.unit: %
reading: 92
//
compound: O=C(NO)C(Cc1cccc(Oc2ccccc2)c1)C(=O)NCc1cccnc1 (centres undefined)
quantity: inhibition
reading.unit: %
reading: 85
//
compound: CC(C)CC(C(=O)NO)C(=O)NCc1cccnc1 (centres undefined)
quantity: inhibition
reading.unit: %
reading: 30
//
compound: O=C(NO)C(Cc1cccc(Oc2ccccc2)c1)C(=O)NCCNc1cccc2ccccc12 (centres undefined)
quantity: inhibition
reading.unit: %
reading: 78
//
compound: O=C(NO)C(Cc1ccccc1)C(=O)N(CCc1ccccc1)Cc1ccccc1 (centres undefined)
quantity: inhibition
reading.unit: %
reading: 56
//
compound: O=C(CC(=O)NCCCCc1ccccc1)NO
quantity: inhibition
reading.unit: %
reading: 36
//
compound: O=C(NO)C(Cc1cccc(Oc2ccccc2)c1)C(=O)NCc1ccc(F)cc1 (centres undefined)
quantity: inhibition
reading.unit: %
reading: 22
//
compound: CC(C)CC(C(=O)NO)C(=O)N(C)CCCCc1ccccc1 (centres undefined)
quantity: inhibition
reading.unit: %
reading: 20
//
compound: O=C(NO)C(Cc1cccc(Oc2ccccc2)c1)C(=O)N1CCN(C(c2ccccc2)c2ccccc2)CC1 (centres undefined)
quantity: inhibition
reading.unit: %
reading: 41
//
compound: O=C(NO)C(Cc1ccccc1)C(=O)N1CCN(c2ccccc2)CC1 (centres undefined)
quantity: inhibition
reading.unit: %
reading: 46
//
compound: CC(C)CC(C(=O)NO)C(=O)N1CCC(Cc2ccccc2)CC1 (centres undefined)
quantity: inhibition
reading.unit: %
reading: 68
//
compound: COc1cccc(CC(C(=O)NO)C(=O)NCc2cccc(Oc3ccccc3)c2)c1 (centres undefined)
quantity: inhibition
reading.unit: %
reading: 69
//
compound: NC(C(=O)NO)C(=O)N1CCC2(CCNc3ccccc3O2)CC1 (centres undefined)
quantity: inhibition
reading.unit: %
reading: 9
//
compound: CC(C)CC(C(=O)NO)C(=O)NCc1ccc(C(F)(F)F)cc1 (centres undefined)
quantity: inhibition
reading.unit: %
reading: 45
//
compound: CN(CCCNC(=O)C(N)C(=O)NO)c1ccccc1 (centres undefined)
quantity: inhibition
reading.unit: %
reading: 18
//
compound: NC(C(=O)NO)C(=O)N1CCN(Cc2ccccc2)CC1 (centres undefined)
quantity: inhibition
reading.unit: %
reading: -5
//
compound: O=C(NO)C(Cc1cccc(Oc2ccccc2)c1)C(=O)N1CCN(Cc2ccccc2)CC1 (centres undefined)
quantity: inhibition
reading.unit: %
reading: 47
//
compound: O=C(NO)C(Cc1ccccc1)C(=O)NCc1cccnc1 (centres undefined)
quantity: inhibition
reading.unit: %
reading: 15
//
compound: O=C(NO)C(Cc1ccccc1)C(=O)N[C@H]1CCN(Cc2ccccc2)C1 (some centres undefined)
quantity: inhibition
reading.unit: %
reading: 28
//
compound: CN(Cc1ccccc1)C(=O)C(Cc1ccccc1)C(=O)NO (centres undefined)
quantity: inhibition
reading.unit: %
reading: 36
//
compound: O=C(NO)C(Cc1cccc(Oc2ccccc2)c1)C(=O)NCCc1ccccc1 (centres undefined)
quantity: inhibition
reading.unit: %
reading: 88
//
compound: O=C(CC(=O)N1CCN(c2ccccc2)CC1)NO
quantity: inhibition
reading.unit: %
reading: 11
//
compound: O=C(NO)C(Cc1cccc(Oc2ccccc2)c1)C(=O)N1CCN(Cc2ccc3c(c2)OCO3)CC1 (centres undefined)
quantity: inhibition
reading.unit: %
reading: 31
//
compound: NC(C(=O)NO)C(=O)NCc1cccc(-c2ccccc2)c1 (centres undefined)
quantity: inhibition
reading.unit: %
reading: 62
//
compound: CC(C)CN(CCCCc1ccccc1)C(=O)C(N)C(=O)NO (centres undefined)
quantity: inhibition
reading.unit: %
reading: -1
//
compound: O=C(NO)C(Cc1ccccc1)C(=O)NCc1ccccc1 (centres undefined)
quantity: inhibition
reading.unit: %
reading: 69
//
compound: CN(CCCCc1ccccc1)C(=O)C(N)C(=O)NO (centres undefined)
quantity: inhibition
reading.unit: %
reading: 10
